Provenance of the data: the supplement of paper PMC9112550

- Tested on: Escherichia coli TOP10
- test name: shrunken log2 fold change of peptide-encoding DNA abundance (4.5 h post-induction vs induction); higher = less antimicrobial activity (less host growth inhibition)
- test context: time post-induction: 4.5 h; library: site-saturation at positions 5, 18, 19, 20
measurement type: shrunken log2 fold change
Give bare numbers.

Some sequences with recorded shrunken log2 fold change:
• RRIRVRPPRLPRPRPRPRHNPRP = -0.389
• RRIRMRPPRLPRPRPRPDAWPRP = 2.59

Go through the items and report each one's shrunken log2 fold change.
1. RRIRTRPPRLPRPRPRPRCDPRP
2. RRIRFRPPRLPRPRPRPLLLPRP

Outgoing:
0.13
-0.443

* * *

- System: Escherichia coli TOP10
- test name: shrunken log2 fold change of peptide-encoding DNA abundance (4.5 h post-induction vs induction); higher = less antimicrobial activity (less host growth inhibition)
- test context: time post-induction: 4.5 h; library: site-saturation at positions 5, 18, 19, 20
Assign class by shrunken log2 fold change: not lower than -0.03 means 1; lower than -0.03 means 0.

See these solved cases before continuing.
• RRIRERPPRLPRPRPRPGMSPRP = 1
• RRIRHRPPRLPRPRPRPRHWPRP = 1
• RRIRIRPPRLPRPRPRPCVFPRP = 0

Incoming: Hi team, for RRIRVRPPRLPRPRPRPKAQPRP , is the recorded shrunken log2 fold change at or above -0.03?
Outgoing: 1

Incoming: Hi team, for RRIRLRPPRLPRPRPRPWDDPRP , is the recorded shrunken log2 fold change at or above -0.03?
Outgoing: 0

Incoming: Hi team, for RRIRCRPPRLPRPRPRPQIKPRP , is the recorded shrunken log2 fold change at or above -0.03?
Outgoing: 0

Incoming: Hi team, for RRIRRRPPRLPRPRPRPMVPPRP , is the recorded shrunken log2 fold change at or above -0.03?
Outgoing: 1

* * *

- Tested on: Escherichia coli TOP10
- test name: shrunken log2 fold change of peptide-encoding DNA abundance (4.5 h post-induction vs induction); higher = less antimicrobial activity (less host growth inhibition)
- test context: time post-induction: 4.5 h; library: site-saturation at positions 5, 18, 19, 20
measurement type: shrunken log2 fold change
Give bare numbers.

• RRIRTRPPRLPRPRPRPNYCPRP = -0.0491
• RRIRRRPPRLPRPRPRPCGPPRP = 0.517
• RRIRQRPPRLPRPRPRPLKDPRP = -0.164

Go through the items and report each one's shrunken log2 fold change.
1. RRIRYRPPRLPRPRPRPEIPPRP
2. RRIRTRPPRLPRPRPRPFLNPRP
3. RRIRRRPPRLPRPRPRPTQEPRP
4. RRIRNRPPRLPRPRPRPEHGPRP
5. RRIRRRPPRLPRPRPRPTWCPRP

Outgoing:
0.0336
-0.183
0.212
-0.0132
0.0593

Go through the items and report each one's shrunken log2 fold change.
1. RRIRDRPPRLPRPRPRPGGCPRP
2. RRIRPRPPRLPRPRPRPKMLPRP
3. RRIRVRPPRLPRPRPRPHGAPRP
4. RRIRVRPPRLPRPRPRPGLAPRP
5. RRIRGRPPRLPRPRPRPHGPPRP

Outgoing:
0.687
-0.222
-0.0881
0.166
0.426

Go through the items and report each one's shrunken log2 fold change.
1. RRIRPRPPRLPRPRPRPPDQPRP
2. RRIRKRPPRLPRPRPRPEDAPRP
3. RRIRQRPPRLPRPRPRPCMNPRP
4. RRIRMRPPRLPRPRPRPPRYPRP
5. RRIRCRPPRLPRPRPRPQELPRP
6. RRIRGRPPRLPRPRPRPTQDPRP

Outgoing:
[0.601, 0.054, -0.0959, 1.71, -0.212, 1.34]

* * *

Consider the following sequences; for each one, report its shrunken log2 fold change.
- Tested on: Escherichia coli TOP10
- test name: shrunken log2 fold change of peptide-encoding DNA abundance (4.5 h post-induction vs induction); higher = less antimicrobial activity (less host growth inhibition)
- test context: time post-induction: 4.5 h; library: site-saturation at positions 5, 18, 19, 20

- RRIRKRPPRLPRPRPRPMEAPRP: 0.0719
- RRIRIRPPRLPRPRPRPTAIPRP: -0.574
- RRIRKRPPRLPRPRPRPSHCPRP: -0.578
- RRIRCRPPRLPRPRPRPVWDPRP: -0.107

With those in mind, consider the next sequence.
Incoming: Give its shrunken log2 fold change value. Item: RRIRQRPPRLPRPRPRPLKLPRP
Outgoing: -0.017

* * *

- Test system: Escherichia coli TOP10
- test name: shrunken log2 fold change of peptide-encoding DNA abundance (4.5 h post-induction vs induction); higher = less antimicrobial activity (less host growth inhibition)
- test context: time post-induction: 4.5 h; library: site-saturation at positions 5, 18, 19, 20
measurement type: shrunken log2 fold change

Some sequences with recorded shrunken log2 fold change:
* RRIRFRPPRLPRPRPRPASEPRP | 0.21
* RRIRNRPPRLPRPRPRPGMYPRP | -0.242
* RRIRWRPPRLPRPRPRPRNVPRP | -0.0411
* RRIRARPPRLPRPRPRPDRFPRP | 0.414
* RRIRYRPPRLPRPRPRPNDRPRP | -0.0645
* RRIRTRPPRLPRPRPRPGDHPRP | 0.00667
* RRIRRRPPRLPRPRPRPCFGPRP | 0.0921
* RRIRPRPPRLPRPRPRPMKLPRP | -0.0874

Go through the items and report each one's shrunken log2 fold change.
1. RRIRIRPPRLPRPRPRPANQPRP
2. RRIRHRPPRLPRPRPRPMSFPRP
3. RRIRDRPPRLPRPRPRPPRFPRP
4. RRIRVRPPRLPRPRPRPDREPRP
5. RRIRERPPRLPRPRPRPDSGPRP
6. RRIRIRPPRLPRPRPRPRYWPRP

Outgoing:
[-0.693, -0.089, 0.315, 0.0132, -0.533, 0.0433]

Go through the items and report each one's shrunken log2 fold change.
1. RRIRPRPPRLPRPRPRPLLDPRP
2. RRIRHRPPRLPRPRPRPHTFPRP

Outgoing:
[0.0537, -0.386]

Go through the items and report each one's shrunken log2 fold change.
1. RRIRKRPPRLPRPRPRPYCNPRP
2. RRIRDRPPRLPRPRPRPDTRPRP
3. RRIRGRPPRLPRPRPRPMDTPRP
4. RRIRSRPPRLPRPRPRPGYDPRP
5. RRIRYRPPRLPRPRPRPMVAPRP
6. RRIRLRPPRLPRPRPRPYTRPRP

Outgoing:
[0.068, 0.203, 1.12, -0.125, 0.133, -0.0648]

* * *

- Test system: Escherichia coli TOP10
- test name: shrunken log2 fold change of peptide-encoding DNA abundance (4.5 h post-induction vs induction); higher = less antimicrobial activity (less host growth inhibition)
- test context: time post-induction: 4.5 h; library: site-saturation at positions 5, 18, 19, 20
Assign class by shrunken log2 fold change: not lower than 0.02 means criterion met; lower than 0.02 means criterion not met.

- RRIRARPPRLPRPRPRPYKAPRP: criterion not met
- RRIRYRPPRLPRPRPRPDDSPRP: criterion not met
- RRIRQRPPRLPRPRPRPVKGPRP: criterion not met
- RRIRLRPPRLPRPRPRPFQDPRP: criterion not met
- RRIRLRPPRLPRPRPRPVLWPRP: criterion met
- RRIRCRPPRLPRPRPRPDIFPRP: criterion not met
- RRIRCRPPRLPRPRPRPWDTPRP: criterion not met
- RRIRKRPPRLPRPRPRPWNNPRP: criterion not met
- RRIRQRPPRLPRPRPRPSPFPRP: criterion not met
- RRIRKRPPRLPRPRPRPCMGPRP: criterion met

Incoming: Hi team, for RRIRKRPPRLPRPRPRPLMCPRP , is the recorded shrunken log2 fold change at or above 0.02?
Outgoing: criterion not met

Incoming: Hi team, for RRIRERPPRLPRPRPRPLQMPRP , is the recorded shrunken log2 fold change at or above 0.02?
Outgoing: criterion not met

Incoming: Hi team, for RRIRHRPPRLPRPRPRPNMMPRP , is the recorded shrunken log2 fold change at or above 0.02?
Outgoing: criterion not met

Incoming: Hi team, for RRIRSRPPRLPRPRPRPPYNPRP , is the recorded shrunken log2 fold change at or above 0.02?
Outgoing: criterion not met

Incoming: Hi team, for RRIRPRPPRLPRPRPRPRMAPRP , is the recorded shrunken log2 fold change at or above 0.02?
Outgoing: criterion met

* * *

- System: Escherichia coli TOP10;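 also: peptides expressed intracellularly from a pBAD plasmid library in pooled LB shake-flask culture, induced with 0.3% L-arabinose, DNA abundance read by NGS, three biological replicates, DESeq2 with apeglm shrinkage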
- test name: shrunken log2 fold change of peptide-encoding DNA abundance (4.5 h post-induction vs induction); higher = less antimicrobial activity (less host growth inhibition)
- test context: time post-induction: 4.5 h; library: site-saturation at positions 5, 18, 19, 20
measurement type: shrunken log2 fold change
Give bare numbers.

• RRIRQRPPRLPRPRPRPWYNPRP = -0.375

Go through the items and report each one's shrunken log2 fold change.
1. RRIRHRPPRLPRPRPRPQIIPRP
2. RRIRPRPPRLPRPRPRPVPVPRP
3. RRIRPRPPRLPRPRPRPGPHPRP
4. RRIRCRPPRLPRPRPRPHCVPRP
5. RRIRKRPPRLPRPRPRPKHCPRP

Outgoing:
-0.634
0.136
0.134
-0.439
-0.222

Go through the items and report each one's shrunken log2 fold change.
1. RRIRFRPPRLPRPRPRPGTFPRP
2. RRIRDRPPRLPRPRPRPWGRPRP
3. RRIRFRPPRLPRPRPRPCCWPRP
4. RRIRYRPPRLPRPRPRPKTQPRP
5. RRIRERPPRLPRPRPRPVWVPRP
6. RRIRARPPRLPRPRPRPQYGPRP
7. RRIRGRPPRLPRPRPRPGFEPRP

Outgoing:
-0.492
0.258
0.148
0.0853
0.0145
-0.442
0.813

Go through the items and report each one's shrunken log2 fold change.
1. RRIRTRPPRLPRPRPRPRIKPRP
2. RRIRVRPPRLPRPRPRPPQAPRP
3. RRIRGRPPRLPRPRPRPGFAPRP
4. RRIRIRPPRLPRPRPRPWKHPRP
5. RRIRNRPPRLPRPRPRPCARPRP
6. RRIRTRPPRLPRPRPRPLCPPRP
7. RRIRDRPPRLPRPRPRPNSMPRP

Outgoing:
[-0.208, 0.0808, 0.831, -0.0111, -0.213, -0.165, 0.0952]

Go through the items and report each one's shrunken log2 fold change.
1. RRIRGRPPRLPRPRPRPYQQPRP
2. RRIRKRPPRLPRPRPRPWCMPRP
3. RRIRHRPPRLPRPRPRPCWEPRP
4. RRIRSRPPRLPRPRPRPKNGPRP
5. RRIRDRPPRLPRPRPRPRECPRP

Outgoing:
0.0771
0.183
0.153
-0.105
0.0105
